# PROCEDURE DETAILS: chemical genetic growth profiling, strain panel (AID 1159580);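 also: tested at 20 µM; growth read once vehicle control cultures reached saturation at 30 °C; lower values mean less growth of the strain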
# MEASUREMENT SETUP: S. cerevisiae deletion strains, growth OD, locus YDR001C, strain nth1
In all, about 5,500 compounds went through this assay and about 2,000 (36%) were called active. Another 18% or so got no clear call; they are omitted. Rule as the data show it: active = normalized growth mostly below about 0.91 (no sharp cut-off); inconclusive = no clear call, values can overlap the other calls; inactive = mostly above about 0.92. This is one part of the list.
Outcome codes: active, inactive

molecule=COc1cc([C@@H]2c3cc4c(cc3[C@H](O)[C@H]3COC(=O)[C@H]23)OCO4)cc(OC)c1OC category=inactive
molecule="CC(=O)O[C@@H]1C2CC[C@@H]3C1(C[C@@H](O)[C@@]1(O)[C@@H](C[C@H](O)C1(C)C)[C@]3(C)O)C[C@@]2(C)O (stereo not given in full)" category=inactive
molecule="Oc1cc2c(cc1O)C(c1ccccc1)CNCC2 (stereo not given)" category=inactive
molecule="C[C@H]1C(=O)CCC2[C@]3(C)CC[C@@]4(C)C5CC(C)(C)CC[C@]5(C)CC[C@]4(C)C3CC[C@@]21C (stereo not given in full)" category=inactive
molecule="CC(=O)O[C@H]1CC2CCC3C(CC[C@@]4(C)C3C[C@H]([N+]3(C)CCCCC3)[C@@H]4OC(C)=O)[C@@]2(C)C[C@@H]1N1CCCCC1 (stereo not given in full)" category=inactive
molecule=O=C(/C=C/c1ccc(O)cc1)c1ccccc1O category=active
molecule=O=c1c(O)c(-c2ccccc2)oc2cc(O)ccc12 category=active
molecule=OC[C@H]1O[C@@H](Oc2ccc(O)cc2)[C@H](O)[C@@H](O)[C@@H]1O category=inactive
molecule="CC(=CC1CCC(C)C2CCC(C)=C12)C(=O)O (stereo not given)" category=inactive
molecule=CN1CCC[C@H]1c1cccnc1 category=inactive
molecule=NNCc1ccccc1 category=inactive
molecule="CO/N=C(/C(=O)NC1C(=O)N2C(C(=O)OCOC(=O)C(C)(C)C)=C(/C=C\\c3scnc3C)CSC12)c1csc(N)n1 (stereo not given)" category=inactive
molecule=O=C(CCc1ccc(O)cc1)c1c(O)cc(O)cc1O category=inactive
molecule="CN1CCCCC1c1ccc(-c2cccnc2)nc1 (stereo not given)" category=inactive
molecule=O=c1c(O)cccc2cc(O)c(O)c(O)c12 category=inactive
molecule="CC(=CC1CCC(C)C2C1=C(C)CC2O)C(=O)O (stereo not given)" category=inactive
molecule=CC1=C(C(=O)O)N2C(=O)[C@@H](NC(=O)[C@@H](N)c3ccc(O)cc3)[C@H]2SC1 category=inactive
molecule=COc1ccc(CC(=O)c2ccc(O)cc2O)cc1 category=inactive
molecule="NC(Cc1ccc(Cl)cc1)C(=O)O (stereo not given)" category=inactive
molecule=CC(=O)c1c(O)cc(O)cc1O category=inactive
molecule=C/C(=C\CO)CC[C@H](C)CCC[C@H](C)CCCC(C)C category=active
molecule=CCCCN(CC)c1c([N+](=O)[O-])cc(C(F)(F)F)cc1[N+](=O)[O-] category=inactive
molecule="ClC1C(Cl)C(Cl)C(Cl)C(Cl)C1Cl (stereo not given)" category=inactive
molecule=COc1cc(O)ccc1C(C)=O category=inactive
molecule=COc1ccc([C@@H](C)C(=O)c2ccc(O)cc2O)cc1 category=inactive
molecule=CCCc1ncc(C[n+]2ccccc2C)c(N)n1 category=inactive
molecule=Oc1cccc2cccnc12 category=active
molecule=CCC[C@@H]1C[C@@H](C(=O)N[C@H]([C@H]2O[C@H](SC)[C@H](O)[C@@H](O)[C@H]2O)[C@H](C)O)N(C)C1 category=inactive
molecule=O=C1c2ccccc2C(=O)c2ccccc21 category=inactive
molecule="COC(=O)CC1C(C)(C(=O)c2ccoc2)CC2OCC34C(CC(=O)OC)C5(C)CC36OC3(C)OC1(C(OC(C)=O)C6(OC(C)=O)C5OC(=O)C(C)C)C24O3 (stereo not given)" category=inactive
